Quick record: IC50, Thyroid hormone receptor beta (Homo sapiens).
Please give a number only; it is taken to be in nM.

input: Checklist item: IC50 tested on Thyroid hormone receptor beta (Homo sapiens), entry CC(C)c1cc(Oc2c(Cl)cc3[nH]c(C(=O)O)cc(=O)c3c2Cl)ccc1O , value?
output: 15.1

input: Query for Thyroid hormone receptor beta (Homo sapiens): what IC50 does the record show for O=C(O)Cc1cc(Br)c(OC2CCCCC2)c(Br)c1 ?
output: 776

input: # value lookup — system Thyroid hormone receptor beta (Homo sapiens), readout IC50, item COc1cccc(CCNC(=O)c2cc(Oc3c(Br)cc(CC(=O)O)cc3Br)ccc2O)c1
output: 4.9

input: IC50 of O=C(O)Cc1cc(Cl)c(Oc2ccc(O)c(-c3cccc(C(F)(F)F)c3)c2)c(Cl)c1 on Thyroid hormone receptor beta (Homo sapiens)?
output: 0.851
